Target: HLA-A*02:01
Experiment: IEDB peptide-MHC binding, purified MHC/direct/fluorescence; filed as Kd, often an IC50 or EC50 that approximates it; bounds were set here for any values at or beyond the usual limits of such assays
Details: source organism: Escherichia coli O157:H7
Reported Kd values are given for each entry in this list.

Solved entries (count: 2):
| biopolymer_sequence | Kd |
| --- | --- |
| AHGWSTFYL | ≥ 20 µM |
| PLKVKDIPF | ≥ 20 µM |

Query block: Reported Kd, sequence LPEFERRTL : ____
Result block: ≥ 20 µM

###

Biological target: HLA-B*15:01
Assay: IEDB peptide-MHC binding, purified MHC/competitive/fluorescence; filed as Kd, often an IC50 or EC50 that approximates it; bounds were set here for any values at or beyond the usual limits of such assays
Details: source organism: Yersinia pestis Antiqua
value_kind: pKd
As a rule, pKd stands for the negative log10 of the concentration, concentration in M.

Query block: Reported pKd, sequence FSQEEAKLF : ____
Result block: 5.61

###

Molecular target: HLA-B*27:05
Assay: IEDB peptide-MHC binding, purified MHC/direct/fluorescence; filed as Kd, often an IC50 or EC50 that approximates it; bounds were set here for any values at or beyond the usual limits of such assays
Settings: source organism: Rickettsia sibirica
pKd: −log10 of the molar value.
value_kind: pKd

Query block: Reported pKd, sequence AIKPITDQF : ____
Result block: ≤ 4.70

###

Target: HLA-B*54:01
Assay: IEDB peptide-MHC binding, purified MHC/competitive/radioactivity; filed as Kd, often an IC50 or EC50 that approximates it; bounds were set here for any values at or beyond the usual limits of such assays
Conditions: source organism: Mammarenavirus juninense
value_kind: Kd (nM)
Dear colleague, please return just the value in nM, with no unit written.

Query block: Reported Kd, sequence MAVELFQTI : ____
Result block: 188

###

Molecular target: HLA-A*31:01
Test: IEDB peptide-MHC binding, purified MHC/competitive/radioactivity; filed as Kd, often an IC50 or EC50 that approximates it; bounds were set here for any values at or beyond the usual limits of such assays
Details: source organism: Dengue virus 3 Martinique/1243/1999
value_kind: Kd (µM)
Dear colleague, please return just the value in µM, with no unit written.

Query block: Param readout= Kd; system= HLA-A*31:01; entry= ATTVITPMLR ; returns value.
Result block: 0.163

###

Target: HLA-B*45:06
Test: IEDB peptide-MHC binding, purified MHC/competitive/fluorescence; filed as Kd, often an IC50 or EC50 that approximates it; bounds were set here for any values at or beyond the usual limits of such assays
Details: source organism: human gammaherpesvirus 4
value_kind: pKd
As a rule, pKd stands for the negative log10 of the concentration, concentration in M.

Query block: Reported pKd, sequence AQRAAGPSV : ____
Result block: 8.04

###

Target: HLA-B*44:03
Experiment: IEDB peptide-MHC binding, purified MHC/competitive/radioactivity; filed as Kd, often an IC50 or EC50 that approximates it; bounds were set here for any values at or beyond the usual limits of such assays
Conditions: source organism: Lassa virus Josiah
value_kind: Kd

Query block: Reported Kd, sequence YDHALMSII : ____
Result block: ≥ 33.4 µM

###

Reported Kd values are given for each entry in this list.
Target: HLA-B*15:01
Experiment: IEDB peptide-MHC binding, purified MHC/competitive/radioactivity; filed as Kd, often an IC50 or EC50 that approximates it; bounds were set here for any values at or beyond the usual limits of such assays
Conditions: source organism: Dengue virus 3 Martinique/1243/1999
Returns: string containing the number followed by the unit.

| biopolymer_sequence | Kd |
| --- | --- |
| MTIDLDPVIY | 0.00532 µM |

Now let's try a different one.
Query block: Reported Kd, sequence QMANGIALGL : ____
Result block: 0.191 µM
